System: HCT-116
experimental.protocol: Growth inhibition of human HCT116 cells after 48 hrs by MTS assay
Type: functional
condition.notes: HCT-116, 48 h
Answer each item with its documented GI50.
One number for each entry, in nM.

// worked examples, GI50 included
COc1cc(/C=C/C(=O)/C=C/c2cc(OC)c(OCCO)c(OC)c2)cc(OC)c1OCCO = 500
COc1ccc(/C=C/C(=O)/C=C/c2ccc(OC)c(OC)c2)cc1O = 1500

// for each compound in input: emit GI50
1. COc1cc(/C=C/C(=O)/C=C/c2cc(OC)c(OCC(=O)O)c(OC)c2)cc(OC)c1OC
2. COc1cc(/C=C/C(=O)/C=C/c2cc(OC)c(OCCN=[N+]=[N-])c(OC)c2)cc(OC)c1OC
3. CCCSC(CC(=O)/C=C/c1ccc(OC)c(OC)c1)c1ccc(OC)c(OC)c1 (stereo not given)
4. COc1cc(/C=C/C(=O)/C=C/c2cc(OC)c(O)c(OC)c2)cc(OC)c1O
5. COc1cc(/C=C/C(=O)/C=C/c2cc(OC)c(OCc3cn(CCCCCCCCCO)nn3)c(OC)c2)cc(OC)c1OC

38000
9700
22000
800
800

// for each compound in input: emit GI50
1. COc1cc(OC)c(/C=C/C(=O)/C=C/c2c(OC)cc(OC)cc2OC)c(OC)c1
2. COc1cc(/C=C/C(=O)/C=C/c2cccc(OS(=O)(=O)C(F)(F)F)c2)cc(OC)c1OC
3. COc1cccc(/C=C/C(=O)/C=C/c2cccc(OC)c2)c1

[2300, 2400, 9100]

// for each compound in input: emit GI50
1. COc1cc(/C=C/C(=O)/C=C/c2cc(OC)cc(OC)c2)cc(OC)c1
2. COc1ccc(/C=C/C(=O)c2ccc(OC)c(OC)c2)cc1OC
3. COc1ccc(OC)c(/C=C/C(=O)/C=C/c2cc(OC)ccc2OC)c1
4. COc1cc(/C=C/C(=O)/C=C/c2ccc(OC)c(OC)c2)ccc1O
5. COc1ccc(/C=C/C(=O)/C=C(O)/C=C/c2ccc(OC)c(OC)c2)cc1OC
6. COc1cc(/C=C/C(=O)/C=C/c2cccc(OC(=O)C34CC5CC(CC(C5)C3)C4)c2)cc(OC)c1OC
7. CCOC(C)Oc1cccc(/C=C/C(=O)/C=C/c2cc(OC)c(OC)c(OC)c2)c1 (stereo not given)

[2000, 7000, 8100, 700, 2000, 7600, 1400]

###

Tested on: HCT-116
experimental.protocol: Growth inhibition of human HCT116 cells after 48 hrs by MTS assay
Format: functional
condition.notes: HCT-116, 48 h
Hi! Just check whether GI50 is below 2000 nM. Below gives condition met, equal or above gives condition not met.

Solved entries (count: 2):
COc1ccc(/C=C/C(=O)/C=C/c2ccc(OC)c(OC)c2)cc1 = condition not met
COc1cc(/C=C/C(=O)/C=C/c2ccc(O)c(OC)c2)ccc1O = condition not met

I'd appreciate it if you could check whether COC(=O)COc1c(OC)cc(/C=C/C(=O)/C=C/c2cc(OC)c(OC)c(OC)c2)cc1OC has GI50 smaller than 2000 nM.
condition not met

Also COc1ccc(/C=C/C(=O)/C=C/c2ccc(OC)cc2)cc1 , if possible.
condition not met

Also COc1cc(/C=C/C(=O)/C=C/c2cc(OC)c(OCc3cn(CCCCCCCCCCOC(=O)CSCc4c(C)n5c(C)c(C)c(=O)n5c4=O)nn3)c(OC)c2)cc(OC)c1OC , if possible.
condition not met

Also COCOc1ccc(/C=C/C(=O)/C=C/c2ccc(OCOC)c(OCOC)c2)cc1OCOC , if possible.
condition met

Also O=C(/C=C/c1cc(O)cc(O)c1)/C=C/c1cc(O)cc(O)c1 , if possible.
condition met

Also COc1cc(/C=C/C(=O)/C=C/c2cc(OC)c(OC)c(OC)c2)cc(OC)c1OC , if possible.
condition met

Also COc1ccc(/C=C2\CCC/C(=C\c3ccc(OC)c(OC)c3)C2=O)cc1OC , if possible.
condition not met

Also COc1cc(/C=C/C(=O)/C=C/c2cc(OC)c(OCc3cn(CCCCCCCCCCNC(=O)OC(C)(C)C)nn3)c(OC)c2)cc(OC)c1OC , if possible.
condition met

Also COc1cc(/C=C/C(=O)/C=C/c2ccc(OC)c(OC)c2OC)cc(OC)c1OC , if possible.
condition met

Also CCCCCCCCCCCCCCOc1cccc(/C=C/C(=O)/C=C/c2cc(OC)c(OC)c(OC)c2)c1 , if possible.
condition not met

Also COc1ccc(OC)c(OC)c1/C=C/C(=O)/C=C/c1c(OC)ccc(OC)c1OC , if possible.
condition not met

Also COc1ccc(/C=C/C(=O)/C=C/c2ccc(OC)c(OC)c2OC)c(OC)c1OC , if possible.
condition not met

###

System: HCT-116
experimental.protocol: Growth inhibition of human HCT116 cells after 48 hrs by MTS assay
Format: functional
condition.notes: HCT-116, 48 h
Answer each item with its documented GI50.

// worked examples, GI50 included
C=C1CC2CC(C1)/C(=C\c1ccc(OC)c(OC)c1)C(=O)/C2=C/c1ccc(OC)c(OC)c1 = > 50 µM
COc1ccc(/C=C/C(=O)/C=C/c2ccc(OC)cc2OC)c(OC)c1 = > 50 µM

Requested read-out GI50, target or system HCT-116, entry COc1cc(OC)c(OC)c(OC)c1/C=C/C(=O)/C=C/c1c(OC)cc(OC)c(OC)c1OC
> 50 µM

###

Tested on: HCT-116
experimental.protocol: Growth inhibition of human HCT116 cells after 48 hrs by MTS assay
Assay type: functional
condition.notes: HCT-116, 48 h
value.kind: log10 of GI50 (log10 of the value in nM)
Could you please treat all values as log10 of GI50 in nM?

COc1ccc(/C=C/C(=O)/C=C/c2ccc(OC)c(O)c2)cc1O = 2.90
CCOC(C)Oc1c(OC)cc(/C=C/C(=O)/C=C/c2cc(OC)c(OC)c(OC)c2)cc1OC (configuration not stated) = 3.18
COc1cc(/C=C/C(=O)/C=C/c2cc(OC)c(OCCO)c(OC)c2)cc(OC)c1OC = 3.23
COc1cc(/C=C/C(=O)/C=C/c2ccccc2)cc(OC)c1OC = 3.64

// for each compound in input: emit log10 of GI50
1. COc1ccc(/C=C/C(=O)/C=C/c2cc(OC)c(OC)c(OC)c2)cc1
2. COc1cc(OC)c(OC)cc1/C=C/C(=O)/C=C/c1cc(OC)c(OC)cc1OC
3. COc1cc(/C=C/C(=O)/C=C/c2cccc(C#Cc3ccccc3)c2)cc(OC)c1OC
4. COc1ccc(/C=C/C(=O)/C=C/c2ccc(OC)c(OC)c2)cc1OC

[3.48, 3.30, 3.91, 3.18]
